Data provenance: patent US6194437A

Collected Ki values appear next to each entry.
# experimental-system: cloned human GRP-preferring receptor (BB2) (Homo sapiens)
# Sequence (P30550 whole entry): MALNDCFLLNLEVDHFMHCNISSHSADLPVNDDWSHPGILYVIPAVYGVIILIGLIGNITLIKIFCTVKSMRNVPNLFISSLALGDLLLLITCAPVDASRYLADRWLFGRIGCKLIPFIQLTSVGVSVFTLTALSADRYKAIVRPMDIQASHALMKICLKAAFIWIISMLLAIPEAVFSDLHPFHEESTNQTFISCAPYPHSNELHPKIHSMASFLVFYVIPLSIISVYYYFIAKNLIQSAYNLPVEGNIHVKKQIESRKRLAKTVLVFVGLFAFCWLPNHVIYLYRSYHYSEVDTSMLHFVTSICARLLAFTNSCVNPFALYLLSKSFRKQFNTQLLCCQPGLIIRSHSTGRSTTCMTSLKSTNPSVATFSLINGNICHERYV
measurement-name: Ki (nM)

INSERT INTO results (compound, measurement_name, readout_unit, qual, readout_value) VALUES
  ('CC(C)c1cccc(C(C)C)c1NC(=O)N[C@@](C)(Cc1c[nH]c2ccccc12)C(=O)NCC1CCCCC1', 'Ki', 'nM', '>', 10000),
  ('CC(C)c1cccc(C(C)C)c1NC(=O)NC(C)(Cc1c[nH]c2ccccc12)C(=O)Nc1ccccc1 (stereo not drawn)', 'Ki', 'nM', '>', 10000),
  ('CN(C)Cc1ccc(C2(CNC(=O)C(C)(Cc3c[nH]c4ccccc34)NC(=O)Nc3ccc([N+](=O)[O-])cc3)CCCCC2)cc1 (stereo not drawn)', 'Ki', 'nM', '=', 79),
  ('CC(C)c1cccc(C(C)C)c1N(C)C(=O)NC(C)(Cc1c[nH]c2ccccc12)C(=O)NCC1CCCCC1 (stereo not drawn)', 'Ki', 'nM', '>', 10000),
  ('CC(C)c1cccc(C(C)C)c1NC(=O)NC(Cc1c[nH]c2ccccc12)C(=O)N(C)CC1CCCCC1 (stereo not drawn)', 'Ki', 'nM', '>', 10000),
  ('CCOC(=O)c1ccc(NC(=O)N[C@@](C)(Cc2c[nH]c3ccccc23)C(=O)NCC2(c3ccccn3)CCCCC2)cc1', 'Ki', 'nM', '=', 140),
  ('C[C@H](NC(=O)N[C@@](C)(Cc1c[nH]c2ccccc12)C(=O)NCC1(c2ccccn2)CCCCC1)c1ccc([N+](=O)[O-])cc1', 'Ki', 'nM', '=', 60),
  ('CC(C)c1cccc(C(C)C)c1NC(=O)NC(C)(Cc1ccccc1[N+](=O)[O-])C(=O)NCC1(c2ccccn2)CCCCC1 (stereo not drawn)', 'Ki', 'nM', '=', 2550),
  ('CC(C)c1cccc(C(C)C)c1NC(=O)N[C@](C)(Cc1c[nH]c2ccccc12)C(=O)N[C@H]1CCCc2ccccc21', 'Ki', 'nM', '>', 10000),
  ('CC(Cc1c[nH]c2ccccc12)(NC(=O)Nc1ccc([N+](=O)[O-])cc1)C(=O)NCC(c1ccccc1)N1CCCCC1 (stereo not drawn)', 'Ki', 'nM', '>', 10000),
  ('CC(Cc1c[nH]c2ccccc12)(NC(=O)Nc1ccc([N+](=O)[O-])cc1)C(=O)NCC1CCCCC1 (stereo not drawn)', 'Ki', 'nM', '=', 450),
  ('CC(Cc1c[nH]c2ccccc12)(NC(=O)Nc1ccc([N+](=O)[O-])cc1)C(=O)NCC1(O)CCCCC1 (stereo not drawn)', 'Ki', 'nM', '=', 1130);
